Provenance of the data: patent US8846951B2

Biological target: UniProt P28335
Sequence (P28335 33-458): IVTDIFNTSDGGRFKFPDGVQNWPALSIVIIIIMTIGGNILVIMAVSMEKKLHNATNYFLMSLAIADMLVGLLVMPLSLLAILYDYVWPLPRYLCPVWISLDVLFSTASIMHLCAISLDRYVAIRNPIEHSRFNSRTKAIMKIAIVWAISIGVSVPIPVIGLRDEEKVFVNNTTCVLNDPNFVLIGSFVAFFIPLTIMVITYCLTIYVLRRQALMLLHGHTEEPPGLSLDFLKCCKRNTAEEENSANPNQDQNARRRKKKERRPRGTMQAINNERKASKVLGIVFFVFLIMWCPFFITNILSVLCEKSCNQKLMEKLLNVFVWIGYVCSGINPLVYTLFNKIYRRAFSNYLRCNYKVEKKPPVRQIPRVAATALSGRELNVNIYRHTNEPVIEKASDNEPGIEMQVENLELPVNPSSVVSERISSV
Assay: Human 5-HT2C functional assay in CHO-K1 cells (96-well, calcium, FLIPR)
Assay type: cell-based
Set-up: expressed in transfected cells
Conditions: 5-HT2c agonist activity, CHO-K1 cells stably transfected
Response field label: string, one of 1 (EC50 strictly below 4 nM) or -1.

MOLECULE: O=C1NC[C@@H]2CNC[C@H]2c2cc(F)ccc21 (relative stereo)
LABEL CLASS: -1
--
MOLECULE: O=S(=O)(c1cccc(F)c1)N1Cc2ccccc2[C@@H]2CN(Cc3ccccc3)C[C@H]2C1 (relative stereo)
LABEL CLASS: -1
--
MOLECULE: O=C1NC[C@@H]2CNC[C@H]2c2cccc(F)c21 (single isomer, unassigned)
LABEL CLASS: 1
--
MOLECULE: c1ccc2c(c1)OCC[C@H]1CNC[C@H]21 (relative stereo)
LABEL CLASS: -1
--
MOLECULE: CN1C[C@H]2CNC(=O)c3cc(Cl)ccc3[C@@H]2C1 (relative stereo)
LABEL CLASS: 1
--
MOLECULE: c1ccc2c(c1)OCC[C@H]1CNC[C@@H]21 (relative stereo)
LABEL CLASS: -1
--
MOLECULE: CN1C[C@H]2CNC(=O)c3ccc(F)cc3[C@@H]2C1 (relative stereo)
LABEL CLASS: -1
--
MOLECULE: Clc1ccc2c(c1)[C@H]1CNC[C@@H]1CCO2 (relative stereo)
LABEL CLASS: 1
--
MOLECULE: O=C1NC[C@@H]2CNC[C@H]2c2c(F)cccc21 (relative stereo)
LABEL CLASS: 1
--
MOLECULE: CN1C[C@H]2CNC(=O)c3cc(-c4ccccc4)ccc3[C@@H]2C1 (relative stereo)
LABEL CLASS: 1
--
MOLECULE: O=C1NC[C@@H]2CN(Cc3ccccc3)C[C@H]2c2cc(F)ccc21 (relative stereo)
LABEL CLASS: -1
--
MOLECULE: COc1ccc(CN2C[C@H]3CN(S(=O)(=O)c4cccc(F)c4)Cc4ccccc4[C@@H]3C2)cc1 (relative stereo)
LABEL CLASS: -1
--
MOLECULE: c1ccc(CN2C[C@@H]3CCOc4ccccc4[C@H]3C2)cc1 (relative stereo)
LABEL CLASS: -1
--
MOLECULE: CN1C[C@H]2CNC(=O)c3cc(F)ccc3[C@@H]2C1 (relative stereo)
LABEL CLASS: 1
--
MOLECULE: O=S(=O)(c1cccc(F)c1)N1Cc2ccccc2[C@@H]2CN(Cc3ccc(F)cc3)C[C@H]2C1 (relative stereo)
LABEL CLASS: -1
